# target_system: Mcl-1 (Homo sapiens)
# Construct: myc-Mcl-1 SPOT array & FP; made in house
# Sequence (Q07820 with tags, fused parts or gaps): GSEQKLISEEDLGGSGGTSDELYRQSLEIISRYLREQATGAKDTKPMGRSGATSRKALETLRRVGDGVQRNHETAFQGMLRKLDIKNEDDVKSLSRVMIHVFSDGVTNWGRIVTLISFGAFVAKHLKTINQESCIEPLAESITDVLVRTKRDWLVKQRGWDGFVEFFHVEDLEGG
# test_summary: LUMIER full-length protein interaction
# Type: binding
# experimental_context: LUMIER results for Mcl-1; Z-score relative to Gaussian fit of the data; experiment 1, duplicate 2
# Procedure: The LUMIER assay was carried out as previously described with the following modifications. A stable cell line expressing receptor tagged on the N-terminus with Nanoluc luciferase was created (the prey). […] After incubation and washing, luminescence was measured to quantify how much receptor-luciferase was captured by the bait protein. […]
parameter: z-score 1.2
Could you respond with only the numeric value?

Prompt line: Recall and state the measured z-score 1.2 for WDR60 (GGRVKLVHSALIQLGDSLSHKGNEFW) .
Response line: 0.5442

Prompt line: Recall and state the measured z-score 1.2 for SGCA (LFWTPLLVVLLAGLGDTEAQQTTLHP) .
Response line: 1.007

Prompt line: Recall and state the measured z-score 1.2 for EXOC4 (MQTLSELAKSFQDMADRCLLVLHLEV) .
Response line: -0.5001

Prompt line: Recall and state the measured z-score 1.2 for TTC31 (DLSSTFVSLALRKVGDWPLSARREKG) .
Response line: -0.2499

Prompt line: Recall and state the measured z-score 1.2 for ZNF295 (ERLKGQLCDVLLIVGDQKFRAHKNVL) .
Response line: 0.3792

Prompt line: Recall and state the measured z-score 1.2 for C7orf26 (FDHMVPLVEEINRLADELNPLNASQE) .
Response line: 0.6167

Prompt line: Recall and state the measured z-score 1.2 for DZIP3 (NGGLLEFHKSLQEIGDKNDHWFDIDP) .
Response line: 0.5092

Prompt line: Recall and state the measured z-score 1.2 for BAK1 (SSTMGQVGRQLAIIGDDINRRYDSEF) .
Response line: 6.48

Prompt line: Recall and state the measured z-score 1.2 for CTSL2 (SQGKHGFTMAMNAFGDMTNEEFRQMM) .
Response line: -0.01526

Prompt line: Recall and state the measured z-score 1.2 for TMEM214 (SFLSAHCASHLAWFGDSLTSLSQRLQ) .
Response line: -0.396

Prompt line: Recall and state the measured z-score 1.2 for FUT8 (KKLKNLEGNELQRHADEFLLDLGHHE) .
Response line: -0.4768

Prompt line: Recall and state the measured z-score 1.2 for NOL8 (KYDPSKYCHNLKKIGEDFSNTIPISS) .
Response line: 0.3257

Prompt line: Recall and state the measured z-score 1.2 for CCDC57 (QAGPVSSGLALRKLGDRVQLLNLLVT) .
Response line: 0.8015

Prompt line: Recall and state the measured z-score 1.2 for CYP2A6 (MPYMEAVIHEIQRFGDVIPMSLARRV) .
Response line: -0.6263

Prompt line: Recall and state the measured z-score 1.2 for DHX30 (PVESSWIAPELRLQSDDILPLGKDSG) .
Response line: 0.1736
